Data origin, for the record: patent US9636376B2

test: Effect of pH on saturation solubility of carfilzomib; format: physicochemical; conditions: aqueous buffer, thermodynamic from solid; pH 5.0 (15 mM Citrate Buffer)
Parameter Measured: solubility (µg/mL)
Provide only the numeric value, understood in µg/mL.

Input: May I ask what solubility has been recorded for CC(C)C[C@H](NC(=O)[C@H](CCc1ccccc1)NC(=O)CN1CCOCC1)C(=O)N[C@@H](Cc1ccccc1)C(=O)N[C@@H](CC(C)C)C(=O)[C@@]1(C)CO1 ?
Output: 9

====

test: Effect of pH on saturation solubility of carfilzomib; format: physicochemical; settings: aqueous buffer, thermodynamic from solid; pH 3.5 (15 mM Acetate Buffer)
Parameter Measured: solubility (µg/mL)
Provide only the numeric value, understood in µg/mL.

Input: May I ask what solubility has been recorded for CC(C)C[C@H](NC(=O)[C@H](CCc1ccccc1)NC(=O)CN1CCOCC1)C(=O)N[C@@H](Cc1ccccc1)C(=O)N[C@@H](CC(C)C)C(=O)[C@@]1(C)CO1 ?
Output: 125
